B1: library; numbered along this chain (parent)
chain: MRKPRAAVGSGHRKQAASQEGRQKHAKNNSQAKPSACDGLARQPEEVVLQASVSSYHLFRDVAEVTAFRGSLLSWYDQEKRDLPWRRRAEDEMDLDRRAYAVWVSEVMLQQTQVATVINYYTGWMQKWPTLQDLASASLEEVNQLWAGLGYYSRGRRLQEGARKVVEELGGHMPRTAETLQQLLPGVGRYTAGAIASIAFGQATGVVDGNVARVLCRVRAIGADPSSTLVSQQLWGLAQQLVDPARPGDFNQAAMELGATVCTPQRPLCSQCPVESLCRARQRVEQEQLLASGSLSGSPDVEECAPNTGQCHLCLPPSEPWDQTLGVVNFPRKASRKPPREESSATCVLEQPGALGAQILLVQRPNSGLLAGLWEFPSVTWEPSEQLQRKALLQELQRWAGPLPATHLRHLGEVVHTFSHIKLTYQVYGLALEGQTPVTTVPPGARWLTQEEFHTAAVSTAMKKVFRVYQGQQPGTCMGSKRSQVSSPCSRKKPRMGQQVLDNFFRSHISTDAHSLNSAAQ

variants of: B1; assay: 8OG:A repair function score (normalized; synonymous = 0, nonsense = -1) (normalized log-likelihood score); higher = more repair activity (WT-like); details: with 8OG:A DNA repair reporter (GFP) in HEK-293 MUTYH KO cells;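 further: cells sorted at 72 h after reporter transfection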
Outcome label depends on 8OG:A repair function score relative to -0.2: at/above gives Yes, below gives No.

Is it the case that G479N has 8OG:A repair function score reaching or exceeding -0.2?
Yes

Is it the case that T260Y has 8OG:A repair function score reaching or exceeding -0.2?
No

Is it the case that E342C has 8OG:A repair function score reaching or exceeding -0.2?
Yes

Is it the case that V165E has 8OG:A repair function score reaching or exceeding -0.2?
No

Is it the case that V427H has 8OG:A repair function score reaching or exceeding -0.2?
No

Is it the case that P185L has 8OG:A repair function score reaching or exceeding -0.2?
No

Is it the case that R336C has 8OG:A repair function score reaching or exceeding -0.2?
Yes

Is it the case that W381M has 8OG:A repair function score reaching or exceeding -0.2?
Yes

Is it the case that L237Q has 8OG:A repair function score reaching or exceeding -0.2?
No

Is it the case that P244A has 8OG:A repair function score reaching or exceeding -0.2?
No

Is it the case that P317R has 8OG:A repair function score reaching or exceeding -0.2?
Yes

Is it the case that G372P has 8OG:A repair function score reaching or exceeding -0.2?
No

Is it the case that L40Y has 8OG:A repair function score reaching or exceeding -0.2?
Yes

Is it the case that A254L has 8OG:A repair function score reaching or exceeding -0.2?
Yes

Is it the case that E395W has 8OG:A repair function score reaching or exceeding -0.2?
Yes

Is it the case that L501Q has 8OG:A repair function score reaching or exceeding -0.2?
Yes

Is it the case that Q351K has 8OG:A repair function score reaching or exceeding -0.2?
Yes

Is it the case that L387N has 8OG:A repair function score reaching or exceeding -0.2?
Yes

Is it the case that P494M has 8OG:A repair function score reaching or exceeding -0.2?
Yes

Is it the case that C262M has 8OG:A repair function score reaching or exceeding -0.2?
No

Is it the case that D96Q has 8OG:A repair function score reaching or exceeding -0.2?
Yes

Is it the case that A220C has 8OG:A repair function score reaching or exceeding -0.2?
No

Is it the case that A99G has 8OG:A repair function score reaching or exceeding -0.2?
Yes

Is it the case that V284Q has 8OG:A repair function score reaching or exceeding -0.2?
Yes

Is it the case that G205L has 8OG:A repair function score reaching or exceeding -0.2?
No

Is it the case that A345T has 8OG:A repair function score reaching or exceeding -0.2?
Yes

Is it the case that Q202P has 8OG:A repair function score reaching or exceeding -0.2?
No

Is it the case that M93L has 8OG:A repair function score reaching or exceeding -0.2?
Yes

Is it the case that R409C has 8OG:A repair function score reaching or exceeding -0.2?
Yes

Is it the case that Y152N has 8OG:A repair function score reaching or exceeding -0.2?
No

Is it the case that Q470E has 8OG:A repair function score reaching or exceeding -0.2?
Yes

Is it the case that S298P has 8OG:A repair function score reaching or exceeding -0.2?
Yes

Is it the case that W399A has 8OG:A repair function score reaching or exceeding -0.2?
No

Is it the case that A238L has 8OG:A repair function score reaching or exceeding -0.2?
No

Is it the case that K3W has 8OG:A repair function score reaching or exceeding -0.2?
Yes

Is it the case that P174L has 8OG:A repair function score reaching or exceeding -0.2?
No

Is it the case that L432S has 8OG:A repair function score reaching or exceeding -0.2?
No

Is it the case that V230Q has 8OG:A repair function score reaching or exceeding -0.2?
No

Is it the case that L360P has 8OG:A repair function score reaching or exceeding -0.2?
No

Is it the case that Q358N has 8OG:A repair function score reaching or exceeding -0.2?
Yes

Is it the case that W374R has 8OG:A repair function score reaching or exceeding -0.2?
No

Is it the case that G497N has 8OG:A repair function score reaching or exceeding -0.2?
Yes

Is it the case that R389H has 8OG:A repair function score reaching or exceeding -0.2?
No
